Provenance of the data: PubChem BioAssay AID1030

target: Aldehyde dehydrogenase 1A1 (Homo sapiens); assay: qHTS Assay for Inhibitors of Aldehyde Dehydrogenase 1 (ALDH1A1); conditions: Purified ALDH1A1, NADH fluorescence, propionaldehyde substrate; series mostly up to 75.3 µM
About 16,000 (7.3%) of roughly 220,000 compounds were called active. Inconclusive results (about 25%) are left out. Calls follow the shape of the dose curve; as a rule, active = well fitted inhibition curve with a large enough effect (not every such curve was filed as active); inconclusive = small, poorly fitted or top-dose-only effect, or another doubt; inactive = no such curve, though single readings can be large or run the other way. The sample holds actives, similar compounds and a random draw of the others, so the mix is not that of the screen.
Give your call using only these classes: active, inactive

Fill in: this test's call for CCOC(=O)c1c(N)nn(C(=O)c2ccccc2)c1-c1ccccc1 is ___
inactive

Next: CCN(CC)C(=O)Cn1cc(S(=O)(=O)CC(=O)NCc2ccc3c(c2)OCO3)c2ccccc21
inactive

Next: CC(=O)NC(Cc1ccc(F)c(F)c1)C(=O)NC1CCN(c2nnnn2-c2ccccc2)CC1 (stereo not given)
active

Next: COc1ccc(CC(NC(C)=O)C(=O)NC2CCN(C(=O)C3CC3)CC2)cc1OC (stereo not given)
inactive

Next: CCOC(=O)c1cn(Cc2cccc(C)c2)nn1
inactive
